Molecular target: HIV protease (Human immunodeficiency virus type 1 group M subtype B)
Construct: HIV protease is diluted in the assay buffer to a final enzyme concentration of 12.3 nanomolar, based on a molecular weight of 10,780
Test: HIV protease enzyme assay (fluorescence, substrate 2-Ile-Nle-Phe(p-NO2)-Gln-ArgNH2)
Assay type: biochemical
Details: Table 21; HIV protease enzyme assay; read-out: IC50
# label = MET if IC50 < 7 nM else NOT MET

Chemical String	Category
COc1ccc(S(=O)(=O)N(CC(C)C)C[C@@H](O)[C@H](Cc2ccccc2)NC(=O)OCc2ccccn2)cc1	NOT MET
CC(C)CN(C[C@@H](O)[C@H](Cc1ccccc1)NC(=O)OCc1cncs1)S(=O)(=O)c1ccc(N)cc1	NOT MET
COc1ccc(S(=O)(=O)N(CC(C)C)C[C@@H](O)[C@H](Cc2ccccc2)NC(=O)C2CCCCC2)cc1	NOT MET
COc1ccc(S(=O)(=O)N(CC(C)C)C[C@@H](O)[C@H](Cc2ccccc2)NC(=O)c2ccc([N+](=O)[O-])cc2C)cc1	NOT MET
COc1ccc(S(=O)(=O)N(CC(C)C)C[C@@H](O)[C@H](Cc2ccccc2)NC(=O)c2cc(N(C)C)ccc2C)cc1	NOT MET
COc1ccc(S(=O)(=O)N(CC(C)C)C[C@@H](O)[C@H](Cc2ccccc2)NC(=O)OC(C)(C)C)cc1	MET
CC(C)CN(C[C@@H](O)[C@H](Cc1ccccc1)NC(=O)O[C@H]1CCSC1)S(=O)(=O)c1ccc(O)cc1	MET
COc1ccc(S(=O)(=O)N(CC(C)C)C[C@@H](O)[C@H](Cc2ccccc2)NC(=O)O[C@H]2CCOC2)cc1	MET
CC(C)CN(C[C@@H](O)[C@H](Cc1ccccc1)NC(=O)OCc1cccnc1)S(=O)(=O)c1ccc2c(c1)CCO2	MET
CC(C)CN(C[C@@H](O)[C@H](Cc1ccccc1)NC(=O)OCc1cncnc1)S(=O)(=O)c1ccc(O)cc1	MET
Cc1cc(O)ccc1C(=O)N[C@@H](Cc1ccccc1)[C@H](O)CN(CC(C)C)S(=O)(=O)c1ccc2c(c1)OCO2	MET
CC(C)CN(C[C@@H](O)[C@H](Cc1ccccc1)NC(=O)OCc1cccnc1)S(=O)(=O)c1ccc2c(c1)OCO2	MET
CC(C)CN(C[C@@H](O)[C@H](Cc1ccccc1)NC(=O)OCc1ccccc1)S(=O)(=O)c1ccc2nc(N)sc2c1	MET
Cc1c(O)cccc1C(=O)N[C@@H](Cc1ccccc1)[C@H](O)CN(CC(C)C)S(=O)(=O)c1cccc(N)c1	MET
CC(C)CN(C[C@@H](O)[C@H](Cc1ccccc1)NC(=O)O[C@H]1CCOC1)S(=O)(=O)c1ccc(O)cc1	MET
COc1ccc(S(=O)(=O)N(CC(C)C)C[C@@H](O)[C@H](Cc2ccccc2)NC(=O)OCc2ccncc2)cc1	NOT MET
Cc1c(O)cccc1C(=O)N[C@@H](Cc1ccccc1)[C@H](O)CN(CC(C)C)S(=O)(=O)c1ccc2c(c1)OCO2	MET

* * *

Reported pIC50 is given for each of the following compounds.
Target: HIV protease (Human immunodeficiency virus type 1 group M subtype B)
Construct: HIV protease is diluted in the assay buffer to a final enzyme concentration of 12.3 nanomolar, based on a molecular weight of 10,780
Test: HIV protease enzyme assay (fluorescence, substrate 2-Ile-Nle-Phe(p-NO2)-Gln-ArgNH2)
Assay type: biochemical
Conditions: Table 21; HIV protease enzyme assay; read-out: IC50
pIC50: −log10 of the molar value.

Compound	Target Or System	pIC50
COc1ccc(S(=O)(=O)N(CC(C)C)C[C@@H](O)[C@H](Cc2ccccc2)NC(=O)O[C@H]2CCSC2)cc1 [Example 46]	HIV protease (Human immunodeficiency virus type 1 group M subtype B)	8.70
CC(C)CN(C[C@@H](O)[C@H](Cc1ccccc1)NC(=O)OCc1cncs1)S(=O)(=O)c1ccc2c(c1)OCO2 [Example 70]	HIV protease (Human immunodeficiency virus type 1 group M subtype B)	8.30
CC(C)CN(C[C@@H](O)[C@H](Cc1ccccc1)NC(=O)OCc1ccoc1)S(=O)(=O)c1ccc(N)cc1 [Example 60]	HIV protease (Human immunodeficiency virus type 1 group M subtype B)	8.30
CC(C)CN(C[C@@H](O)[C@H](Cc1ccccc1)NC(=O)OCc1cccnc1)S(=O)(=O)c1ccc(Cl)cc1 [Example 18]	HIV protease (Human immunodeficiency virus type 1 group M subtype B)	8.40
COc1ccc(S(=O)(=O)N(CC(C)C)C[C@@H](O)[C@H](Cc2ccccc2)NC(=O)OCc2ccc(N)nc2)cc1 [Example 38]	HIV protease (Human immunodeficiency virus type 1 group M subtype B)	8.40
COc1ccc(S(=O)(=O)N(CC(C)C)C[C@@H](O)[C@H](Cc2ccccc2)NC(=O)OCc2cc[n+]([O-])cc2)cc1 [Example 26]	HIV protease (Human immunodeficiency virus type 1 group M subtype B)	7.17

* * *

Biological target: HIV protease (Human immunodeficiency virus type 1 group M subtype B)
Construct: HIV protease is diluted in the assay buffer to a final enzyme concentration of 12.3 nanomolar, based on a molecular weight of 10,780
Test: HIV protease enzyme assay (fluorescence, substrate 2-Ile-Nle-Phe(p-NO2)-Gln-ArgNH2)
Format: biochemical
Conditions: Table 18A; HIV protease enzyme assay; read-out: IC50
Reported IC50 is given for each of the following molecules.

Molecule	IC50
CC(C)CCN(C[C@@H](O)[C@H](Cc1ccccc1)NC(=O)OCc1ccccc1)S(=O)(=O)c1ccc([N+](=O)[O-])cc1 [Entry 6]	10 nM
CC(C)CCN(C[C@@H](O)[C@H](Cc1ccccc1)NC(=O)[C@@H](NC(=O)CN(C)C)C(C)(C)C)S(=O)(=O)c1ccccc1 [Entry 9]	3.5 nM
CC(C)CCN(C[C@@H](O)[C@H](Cc1ccccc1)NC(=O)[C@H](Cc1c[nH]cn1)NC(=O)OCc1ccccc1)S(=O)(=O)c1ccccc1 [Entry 8]	4.2 nM
CC(C)CCN(C[C@@H](O)[C@H](Cc1ccccc1)NC(=O)OCc1ccccc1)S(=O)(=O)c1cccs1 [Entry 10]	100 nM
CC(C)CCN(C[C@@H](O)[C@H](Cc1ccccc1)NC(=O)[C@@H](NC(=O)OCc1ccccc1)C(C)(C)C)S(C)(=O)=O [Entry 11]	81 nM
CCCN(C[C@@H](O)[C@H](Cc1ccccc1)NC(=O)[C@H](CC(N)=O)NC(=O)OCc1ccccc1)S(=O)(=O)c1ccccc1 [Entry 7]	3.6 nM
